Recorded values, source PubChem BioAssay AID489040.

- target_or_system: CHO-XBP1 luciferase reporter, IRE1-XBP1 UPR activation
- measurement_description: XBP1 luciferase reporter activation – CHO-XBP1 cells, luminescence, counter-screen for apoptotic UPR arm activators, dose response (AID 489040);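 also: reporter read after six hours of compound exposure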
Activity calls are given as the source filed them.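 The calls were made as follows: active = mean half-maximal activating concentration from the dose-response fit at or below a set limit; inactive = the rest.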
reported_endpoint: EC50

Solved entries (count: 5):
>  <query_smiles>
C/C(CC(C)(C)C1CCCCC1)=N\NC(N)=S

>  <target_or_system>
CHO-XBP1 luciferase reporter, IRE1-XBP1 UPR activation

>  <recorded_value>
inactive

$$$$
>  <query_smiles>
CC(=O)/C(=C/c1ccccc1)C(=O)Nc1ccccc1C

>  <target_or_system>
CHO-XBP1 luciferase reporter, IRE1-XBP1 UPR activation

>  <recorded_value>
> 80 µM (inactive)

$$$$
>  <query_smiles>
Cc1ccc(C(C)C)c(OCc2ccc(C(=O)N/N=C/c3ccc(O)c(O)c3)cc2)c1

>  <target_or_system>
CHO-XBP1 luciferase reporter, IRE1-XBP1 UPR activation

>  <recorded_value>
4.41 µM

$$$$
>  <query_smiles>
CC1=NOC(=O)/C1=C\c1ccc(-c2ccc(Cl)cc2Cl)o1

>  <target_or_system>
CHO-XBP1 luciferase reporter, IRE1-XBP1 UPR activation

>  <recorded_value>
> 80 µM (inactive)

$$$$
>  <query_smiles>
Cc1ccc(N2C(=O)NC(=O)/C(=C/C=C/c3ccco3)C2=O)cc1

>  <target_or_system>
CHO-XBP1 luciferase reporter, IRE1-XBP1 UPR activation

>  <recorded_value>
> 80 µM (inactive)

$$$$

Summary line: COC(=O)c1ccc(C(=O)OC)c(NC(=O)CSc2cccc[n+]2[O-])c1 , CHO-XBP1 luciferase reporter, IRE1-XBP1 UPR activation, reported EC50 = 9.54 µM

Summary line: CCOC(=O)C(=Cc1ccc(-n2cncn2)cc1)C(=O)OCC , CHO-XBP1 luciferase reporter, IRE1-XBP1 UPR activation, reported EC50 = > 80 µM (inactive)

Summary line: O=C(N/N=C/c1ccccn1)c1ccc(Cl)c(Cl)c1 , CHO-XBP1 luciferase reporter, IRE1-XBP1 UPR activation, reported EC50 = > 80 µM (inactive)

Summary line: Oc1ccc(/C=N/Nc2ncnc3c2ncn3Cc2ccccc2)cc1O , CHO-XBP1 luciferase reporter, IRE1-XBP1 UPR activation, reported EC50 = inactive

Summary line: CC(C)c1cccc(-c2ccc3c(c2)S(=O)(=O)c2cccc(C(=O)NCc4ccccc4Cl)c2C3=O)c1 , CHO-XBP1 luciferase reporter, IRE1-XBP1 UPR activation, reported EC50 = 11.2 µM

Summary line: CCOC(=O)C1CCN(Cc2ccc(O)c3ncccc23)CC1 , CHO-XBP1 luciferase reporter, IRE1-XBP1 UPR activation, reported EC50 = > 80 µM (inactive)

----------
- target_or_system: CHO-XBP1 luciferase reporter, IRE1-XBP1 UPR activation
- measurement_description: XBP1 luciferase reporter activation – CHO-XBP1 cells, luminescence, counter-screen for apoptotic UPR arm activators, dose response (AID 489040);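 also: reporter read after six hours of compound exposure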
Activity calls are given as the source filed them.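 How the source made its calls: active means mean half-maximal activating concentration from the dose-response fit at or below a set limit; inactive means the rest.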
Mark one answer only. Choices: active, inactive

Check out these entries, answers already filled in.
>  <query_smiles>
Cc1ccc(-c2nn3c(C)nnc3s2)cc1NC(=O)c1ccc(-c2ccc(Cl)cc2Cl)o1

>  <target_or_system>
CHO-XBP1 luciferase reporter, IRE1-XBP1 UPR activation

>  <category>
active

$$$$
>  <query_smiles>
COc1cccc(/C=N/Nc2nc(Nc3ccccc3)nc(-n3nc(C)cc3C)n2)c1O

>  <target_or_system>
CHO-XBP1 luciferase reporter, IRE1-XBP1 UPR activation

>  <category>
active

$$$$
>  <query_smiles>
Oc1ccc(/C=N/Nc2ccnc3cc(Cl)ccc23)cc1O

>  <target_or_system>
CHO-XBP1 luciferase reporter, IRE1-XBP1 UPR activation

>  <category>
active

$$$$
>  <query_smiles>
CC(=O)Nc1ccc(N=Cc2c(O)c(C(=O)Nc3ccccc3)cc3ccccc23)cc1

>  <target_or_system>
CHO-XBP1 luciferase reporter, IRE1-XBP1 UPR activation

>  <category>
inactive

$$$$
>  <query_smiles>
Oc1ccc(/C=N/N2CCCCC2)cc1O

>  <target_or_system>
CHO-XBP1 luciferase reporter, IRE1-XBP1 UPR activation

>  <category>
inactive

$$$$
>  <query_smiles>
CCOC(=O)C(CC)(CC)C(=O)/C=C/c1cccc(Br)c1

>  <target_or_system>
CHO-XBP1 luciferase reporter, IRE1-XBP1 UPR activation

>  <category>
inactive

$$$$
>  <query_smiles>
COc1ccc(C(=O)NCC(=O)N/N=C/c2ccc([N+](=O)[O-])o2)cc1OC

>  <target_or_system>
CHO-XBP1 luciferase reporter, IRE1-XBP1 UPR activation

>  <category>
inactive

$$$$
>  <query_smiles>
Cc1nc([N+](=O)[O-])c(Br)n1CC(=O)c1ccc(Br)cc1

>  <target_or_system>
CHO-XBP1 luciferase reporter, IRE1-XBP1 UPR activation

>  <category>
inactive

$$$$

Recorded test outcome, item COc1ccc(-c2cc(=O)oc3c(C)c(OC(=O)c4cccs4)ccc23)cc1
inactive

Recorded test outcome, item Cc1c(C#N)c(NC(=O)CCl)n(Cc2ccccc2)c1C
inactive

Recorded test outcome, item Brc1ccc(-c2ccc(/C=N/Nc3nncc(-c4ccccc4)n3)o2)cc1
inactive

----------
- target_or_system: CHO-XBP1 luciferase reporter, IRE1-XBP1 UPR activation
- measurement_description: XBP1 luciferase reporter activation – CHO-XBP1 cells, luminescence, counter-screen for apoptotic UPR arm activators, dose response (AID 489040);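 also: reporter read after six hours of compound exposure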
Activity calls are given as the source filed them.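 Rule for the calls: active = mean half-maximal activating concentration from the dose-response fit at or below a set limit; inactive = the rest.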
Mark one answer only. Choices: Y = active, N = inactive

Check out these entries, answers already filled in.
>  <compound>
O=C(NCc1cccnc1)/C(=C/c1ccc(-c2cccc(Cl)c2)o1)S(=O)(=O)c1ccccc1

>  <category>
N

$$$$
>  <compound>
Cc1cccc(-n2c(/C=C/c3ccc([N+](=O)[O-])o3)nc3ccccc3c2=O)c1

>  <category>
N

$$$$
>  <compound>
CN(c1ccccc1)S(=O)(=O)c1cccc(C(=O)NCCc2ccc(O)c(O)c2)c1

>  <category>
Y

$$$$
>  <compound>
O=C(/C=C/Sc1ccc(C(F)(F)F)cn1)c1ccccc1

>  <category>
N

$$$$
>  <compound>
O=C(Nc1ccc(O)c2c(=O)cc(-c3cccc(Cl)c3)oc12)c1ccccc1Cl

>  <category>
N

$$$$
>  <compound>
O=C(Nc1ccc(Cc2ccncc2)cc1)c1ccc([N+](=O)[O-])o1

>  <category>
N

$$$$
>  <compound>
Cc1ccc(N2C(=O)NC(=O)/C(=C/c3cnn(-c4ccc(C)cc4)c3)C2=O)cc1

>  <category>
N

$$$$
>  <compound>
O=C(/C(=C\c1ccccc1)c1nc2ccccc2[nH]1)c1ccc(Cl)cc1

>  <category>
N

$$$$

Recorded test outcome, item O=C(c1ccc(Br)cc1)C(CN1CCOCC1)c1ccccc1 (configuration not stated)
N

Recorded test outcome, item Cc1cc(C)nc(SCc2ccc(C(=O)N/N=C/c3cccc(O)c3O)cc2)n1
N

Recorded test outcome, item N#CC1=C(N)OC2=C(CC/C2=C\c2ccccc2)C1c1ccccc1 (configuration not stated)
N

Recorded test outcome, item O=C1NC(=O)N(c2ccccc2)C(=O)/C1=C/C=C/c1ccco1
N

----------
- target_or_system: CHO-XBP1 luciferase reporter, IRE1-XBP1 UPR activation
- measurement_description: XBP1 luciferase reporter activation – CHO-XBP1 cells, luminescence, counter-screen for apoptotic UPR arm activators, dose response (AID 489040);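 also: reporter read after six hours of compound exposure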
Active and inactive are the calls of the source.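 Rule for the calls: active = mean half-maximal activating concentration from the dose-response fit at or below a set limit; inactive = the rest.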
Mark one answer only. Choices: active, inactive

Check out these entries, answers already filled in.
>  <molecule>
CN1CCN(c2ccc(NC(=O)c3ccc([N+](=O)[O-])o3)cc2Cl)CC1

>  <category>
inactive

$$$$
>  <molecule>
O=C(CCN1C(=O)/C(=C\c2ccccc2F)SC1=S)N1CCCCC1

>  <category>
inactive

$$$$
>  <molecule>
O=C(N/N=C\c1cc2c(cc1Cl)OCO2)c1ccc(Br)s1

>  <category>
inactive

$$$$
>  <molecule>
CCN(CC)S(=O)(=O)c1ccc(N/N=C(\C)c2ccc3c(c2)OCO3)c([N+](=O)[O-])c1

>  <category>
active

$$$$
>  <molecule>
COc1ccc(C(c2c(C)[nH]n(C(N)=S)c2=O)C(C#N)C#N)cc1 (stereo not given)

>  <category>
inactive

$$$$
>  <molecule>
CC(=O)c1ccc(NC(=O)COC(=O)c2ccccc2N=Nc2ccc(N(C)C)cc2)cc1

>  <category>
active

$$$$
>  <molecule>
CC1=NOC(=O)/C1=C/c1ccc(-c2ccc(Cl)cc2)o1

>  <category>
inactive

$$$$
>  <molecule>
CCc1cc2c(=O)c(-c3cnn(-c4ccccc4)c3)c(C)oc2cc1OCC(=O)Nc1cccc(C)c1

>  <category>
inactive

$$$$
>  <molecule>
O=C(Oc1ccccc1/C=C\C(=O)c1cc2ccccc2o1)c1ccccc1

>  <category>
inactive

$$$$

We now examine a further molecule.
Recorded test outcome, item CN1CSC(=S)N(C)C1
inactive
